experiment: HILIC, Waters ACQUITY UPLC BEH Amide, 100 × 2.1 mm, 1.7 µm; A: water + 0.125% formic acid + 10 mM ammonium formate; B: 5% water + 95% acetonitrile + 0.125% formic acid + 10 mM ammonium formate; gradient (min/%B) 0/100 2/100 7.7/70 9.5/40 10.25/30 12.75/100 17/100; conditions: stereoisomer not certain
OBSERVATION TYPE: LC retention time (min)
Value expressed in min; do not type the unit.

CC(N)C(O)c1ccccc1 (stereo unspecified) [Phenylpropanolamine]    5.29
CCN1CCN(c2cc3c(cc2F)c(=O)c(C(=O)O)cn3C2CC2)CC1 [Enrofloxacin]    3.31
CN1C2CCC1CC(OC(=O)c1c[nH]c3ccccc13)C2 (stereo unspecified) [Tropisetron]    3.81
CCN1CC(CCN2CCOCC2)C(c2ccccc2)(c2ccccc2)C1=O (stereo unspecified) [Doxapram]    1.64

Identify measured LC retention time corresponding to NCCCCC(=O)O [5-Aminovaleric acid]
7.24

State, in one line, measured LC retention time of CC(C)C(N)C(=O)O (stereo unspecified) [Valine]
7.24

Name the recorded LC retention time of the item NC(Cc1ccc(O)c(O)c1)C(=O)O (stereo unspecified) [3,4-Dihydroxyphenylalanine] in your answer.
8.31

Let me know recorded LC retention time for CNC(=O)Oc1ccc2c(c1)C1(C)CCN(C)C1N2C (stereo unspecified) [Physostigmine] , thanks.
3.17

Give the measured LC retention time for Cc1ccc(-c2nc3ccc(C)cn3c2CC(=O)N(C)C)cc1 [Zolpidem]
1.62

Assign LC retention time to the following record: CN1CCN(c2nc3cc(C(F)(F)F)ccc3n3cccc23)CC1
2.21

Provide measured LC retention time value, entry: CCCCCCCCCC=O [Decanal]
2.17

Give me measured LC retention time, please, for this molecule: N=C1NC(=O)C(c2ccccc2)O1 (stereo unspecified) [Pemoline]
1.39

Value source: the RepoRT retention time repository
